Assay: logP determination by HPLC (formic acid method)
Assay type: physicochemical
Details: reversed-phase HPLC column (C18), pH 3.4, HPLC on reversed-phase column (C18), acidic range (pH 3.4), 55° C.; read-out: logP (HCOOH)
Value kind: chromatographic logP

# Compound string, Readout value
data = [
    ("Cc1nc(-c2cccnc2)sc1-c1ccn(-c2nc(Cl)cs2)n1", 3.47),
    ("Cn1nc(-c2cccnc2)cc1-c1ccn(Cc2ccccn2)n1", 0.91),
    ("Cc1nc(-c2cccnc2)sc1-c1ccnc(-n2[nH]c(C(F)(F)F)cc2=O)n1", 2.9),
    ("Cn1nc(-c2cccnc2)cc1-c1cc[nH]n1", 0.42),
]
